test system: Plasmodium berghei; assay: Screen against P. berghei liver stage (PbLuc), transformed with Luciferase, at 10uM; assay type: functional, HepG2; conditions: tested at 10 uM
Screen size: about 69,000 compounds; about 8,600 (12%) showed an effect of 50% or more. The sample as a whole holds a higher share of strong results than the screen did.
Please provide measured INHIBITION for the entries that follow.

Requested read-out: INHIBITION. Entry: CCOc1ccc2[nH]c(=O)c(CN3CCC(N4CCCC4)CC3)cc2c1
-1.54%

Requested read-out: INHIBITION. Entry: COc1c(C2CCCN2C(=O)c2cccnc2N(C)C)c(C)nn1C (stereo unspecified)
23.4%

Requested read-out: INHIBITION. Entry: Cc1ccc2c(ccn2CC(=O)NC[C@@H]2CCCN3CCCC[C@H]23)c1
47.4%

Requested read-out: INHIBITION. Entry: O=C(c1ccc(C2CCCN2C(=O)c2cscn2)s1)N1CCSCC1 (stereo unspecified)
-30.6%

Requested read-out: INHIBITION. Entry: CN(C)CCN1C[C@@H]2CN(C(=O)C3CCOC3)C[C@@H]2C1=O (stereo partly specified)
12.7%

Requested read-out: INHIBITION. Entry: O=C1CCN(C(=O)NCC(c2ccccc2)c2ccccc2)CCN1
-61.4%

Requested read-out: INHIBITION. Entry: Cc1noc(C)c1CN1CCn2c(CN3CCN(C)CC3)cnc2C1
21.6%

Requested read-out: INHIBITION. Entry: CN(C)C[C@@H]1CN(C(=O)c2cc(-c3ccccc3)n[nH]2)C[C@@H]1CO
43.9%

Requested read-out: INHIBITION. Entry: Cc1cccc(-c2nc3cc(S(=O)(=O)N4CCCC4)ccc3n2C)n1
-7.53%

Requested read-out: INHIBITION. Entry: Cc1nc(S(=O)(=O)N2CCSCC2)cn1C
-50.7%

Requested read-out: INHIBITION. Entry: O=C1OCCN1CC(=O)N1C[C@@H]2CC[C@H]1CN(C(=O)c1ccccn1)C2
44.8%

---

test system: Plasmodium berghei; test: Screen against P. berghei liver stage (PbLuc), transformed with Luciferase, at 10uM; format: functional, HepG2; settings: tested at 10 uM
About 8,600 (12%) of roughly 69,000 compounds showed an effect of 50% or more. For the sample, strong results were picked, then their nearest neighbours and some compounds at random.
Please provide measured INHIBITION for the entries that follow.
Entry rule: numbers only, all in %.

Requested read-out: INHIBITION. Entry: Cc1cc(NC(=O)CN2CCc3c(nc(C(C)C)n3C)C2)on1
-21.2

Requested read-out: INHIBITION. Entry: Cc1cnn(CC(C)NCc2ccc(-n3cccn3)cc2)c1 (configuration not stated)
-1.58

Requested read-out: INHIBITION. Entry: CC(NCc1cnc(C2CCC2)s1)c1cccc(-n2cccn2)c1 (configuration not stated)
75.3

Requested read-out: INHIBITION. Entry: CCCNC(=O)c1[nH]nc(C2CC2)c1Br
-59.9

Requested read-out: INHIBITION. Entry: Cc1noc(CC2CCN(C(=O)C(c3ccccc3C)N(C)C)CC2)n1 (configuration not stated)
-21.1

Requested read-out: INHIBITION. Entry: Cc1ccnc(C2CCN(CCCOc3ccccc3F)C2)n1 (configuration not stated)
13.5

Requested read-out: INHIBITION. Entry: CN(C)c1ccc(C(=O)N2CCN(Cc3cscn3)CC2)cn1
-0.219

Requested read-out: INHIBITION. Entry: Cc1ccc(C(=O)N2CCC3(CCC(=O)N(CCCO)C3)CC2)c(O)c1
-45

Requested read-out: INHIBITION. Entry: CC(NCc1cnc(C2CCC2)s1)c1cccc(-n2ccnc2)c1 (configuration not stated)
29.7

Requested read-out: INHIBITION. Entry: Cc1ccsc1CN1CCC(n2cc(C(O)c3ccccc3)nn2)CC1 (configuration not stated)
72.1

Requested read-out: INHIBITION. Entry: CN1CCC(Oc2ccc(NC(=O)c3ccccc3)cc2)CC1
21.7

Requested read-out: INHIBITION. Entry: COC(=O)N1C[C@@H]2CC[C@H]1CN(Cc1cscn1)C2
-14.8

Requested read-out: INHIBITION. Entry: CCOc1cccc(C(=O)N2CCC(c3n[nH]c(C4CC4)n3)CC2)c1
11.2

Requested read-out: INHIBITION. Entry: Cc1cnn(CCNCc2cccc(C#N)c2)c1
32.2

Requested read-out: INHIBITION. Entry: Cc1oc(C(=O)O)cc1S(=O)(=O)Nc1ccc(Br)cc1Cl
-18.8

Requested read-out: INHIBITION. Entry: COC(=O)N1CCCCC1C(=O)N1CCCN(c2ccnc(C)c2)CC1 (configuration not stated)
15.9

Requested read-out: INHIBITION. Entry: O=C(c1ccc(F)cc1)N1C[C@@H]2CCN(c3cccnc3)C[C@@H]2C1
43.9

Requested read-out: INHIBITION. Entry: O=C1[C@@H]2CN(c3ncc(Cl)cc3F)C[C@]2(C(=O)O)CN1CC1CC1
-5.19

Requested read-out: INHIBITION. Entry: CC(O)CN1CCC(CNCc2cccc(C(=O)N(C)C)c2)CC1 (configuration not stated)
-38.7

Requested read-out: INHIBITION. Entry: COCC1CN(S(=O)(=O)N(C)C)Cc2cnn(CC3CCCC3)c21 (configuration not stated)
-17.1

Requested read-out: INHIBITION. Entry: CC(C)n1cnnc1SCCN(C)c1ccccc1
-34.8

Requested read-out: INHIBITION. Entry: Cn1ccc(C(=O)NCc2ccc(N3CCOCC3)nc2)cc1=O
-29.9

Requested read-out: INHIBITION. Entry: c1cnc(N2C[C@H]3CCN(c4cccnc4)C[C@H]3C2)nc1
-0.113

Requested read-out: INHIBITION. Entry: Cc1nc(CCN2CCC(Oc3ccccc3F)CC2)cs1
42.5

Requested read-out: INHIBITION. Entry: CN1CC(C(=O)NCCc2ccc(F)c(Br)c2)CC1=O (configuration not stated)
-50.6

Requested read-out: INHIBITION. Entry: Cn1nc(C2CCN(C(=O)CCN3CCOCC3)CC2)c2cccnc21
32.8

Requested read-out: INHIBITION. Entry: COCCOC(=O)N1CCN2C[C@@H](CO)[C@H](c3ccccc3)[C@H]2C1
-8.8

Requested read-out: INHIBITION. Entry: COCCNc1cccc(C2CCCN2)n1 (configuration not stated)
-31

Requested read-out: INHIBITION. Entry: COc1cccc(C(=O)Nc2ccc(OC3CCN(C)CC3)cc2)c1
49.2

Requested read-out: INHIBITION. Entry: CN1C(=O)CO[C@H](c2ccc(NC(=O)c3cccc(F)c3)cc2)[C@H]1CO
38.1

Requested read-out: INHIBITION. Entry: Cc1ncc(CN(C)C(=O)Nc2ccc(CN3CCOC3=O)cc2)s1
22.5

Requested read-out: INHIBITION. Entry: Cc1cccc(C(=O)Nc2ccc(OC3CCN(C)CC3)cc2)c1
63.5

Requested read-out: INHIBITION. Entry: CC(NCc1cnc(C2CCC2)s1)c1ccccc1-n1cccn1 (configuration not stated)
11.9

Requested read-out: INHIBITION. Entry: Cc1nc(C)c(CCN2CCC(Oc3ccccc3F)CC2)s1
86.4

Requested read-out: INHIBITION. Entry: Cc1ccc(CN2CCC(n3cc(C(O)c4ccccc4)nn3)CC2)o1 (configuration not stated)
48.5

Requested read-out: INHIBITION. Entry: Fc1cccc(N2C[C@H]3CCN(c4cccnc4)C[C@H]3C2)c1
50.5

Requested read-out: INHIBITION. Entry: OC(c1ccccc1)c1cn(C2CCN(Cc3nccs3)CC2)nn1 (configuration not stated)
18.5

Requested read-out: INHIBITION. Entry: O=C1CCC2(CCC(NC(=O)NCc3cccnc3)CC2)N1 (configuration not stated)
35.8

Requested read-out: INHIBITION. Entry: CN1CCC(Oc2ccc(NC(=O)c3ccccc3Br)cc2)CC1
51.8

Requested read-out: INHIBITION. Entry: Cn1cnc2c1CCN(Cc1csc(Cc3ccccc3)n1)C2
-3.7

Requested read-out: INHIBITION. Entry: CCCS(=O)(=O)NC(C)c1cccc(-n2cccn2)c1 (configuration not stated)
29.3

Requested read-out: INHIBITION. Entry: COC(=O)N1CCCCC1C(=O)N1CCN(c2ncccc2C)CC1 (configuration not stated)
12.7

Requested read-out: INHIBITION. Entry: Cc1ncc(CN(C)C(=O)Nc2cccc(CN3CCOC3=O)c2)s1
52.8

Requested read-out: INHIBITION. Entry: Cc1n[nH]c(C)c1-c1cnc(C2CCN(S(C)(=O)=O)CC2)cn1
11.1

Requested read-out: INHIBITION. Entry: Cc1ncc(CN(C)C(=O)Nc2cccc(N3CCOC3=O)c2)s1
28

Requested read-out: INHIBITION. Entry: CCSc1ccc(C(=O)N2CCCCC2C(=O)NC(C)(C)C)cn1 (configuration not stated)
29.7

Requested read-out: INHIBITION. Entry: CC(C)c1nccn1C1CCCN(C(=O)c2cc(C3CC3)on2)C1 (configuration not stated)
48.4
